# study.system: Voltage-gated potassium channel KCNQ3/KCNQ5 (Homo sapiens) (UniProt O43525+Q9NR82)
# procedure.text: Agonist activity at human Kv7.3/Kv7.5 expressed in HEK293 cells assessed as drug concentration that doubles the conductance at voltage leading to 15% channel activation at holding potential of at -80 mV by whole cell patch clamp electrophysiology assay
# Format: cell-based
assay.endpoint: EC2 (µM)
# number only, unit µM dropped from output

Report EC2 for CCOC(=O)Nc1ccc(NCc2ccc(C(F)(F)F)cn2)c(F)c1N tested on Voltage-gated potassium channel KCNQ3/KCNQ5 (Homo sapiens) (UniProt O43525+Q9NR82).
0.79

Report EC2 for Nc1c(NC(=O)OC2CC2)ccc(NCc2ccc(C(F)(F)F)cn2)c1F tested on Voltage-gated potassium channel KCNQ3/KCNQ5 (Homo sapiens) (UniProt O43525+Q9NR82).
0.72

Report EC2 for Nc1c(NC(=O)OC2CC2)ccc(NCc2ccc(C(F)(F)F)cc2)c1F tested on Voltage-gated potassium channel KCNQ3/KCNQ5 (Homo sapiens) (UniProt O43525+Q9NR82).
0.23

----------
Record form. Attribute: log10 of EC2. Fill in for each entry.
# study.system: KCNQ4/KCNQ5 (Homo sapiens) (UniProt Q9NR82+P56696)
# procedure.text: Agonist activity at human Kv7.4/Kv7.5 expressed in HEK293 cells assessed as drug concentration that doubles the conductance at voltage leading to 15% channel activation at holding potential of at -80 mV by whole cell patch clamp electrophysiology assay
# Assay type: cell-based
A difference of one corresponds to tenfold EC2; all values are log10 with EC2 in µM.

Request the reported log10 of EC2 associated with CCOC(=O)Nc1ccc(NCc2ccc(F)cc2)nc1N
0.54

Request the reported log10 of EC2 associated with CCOC(=O)Nc1ccc(NCc2cccc(C(F)(F)F)c2)c(F)c1N
-0.18

Request the reported log10 of EC2 associated with Nc1c(NC(=O)OC2CC2)ccc(NCc2ccc(C(F)(F)F)cn2)c1F
-0.02

Request the reported log10 of EC2 associated with CCOC(=O)Nc1ccc(NCc2ccc(C(F)(F)F)cn2)c(F)c1N
-0.23

Request the reported log10 of EC2 associated with CCOC(=O)Nc1ccc(NCc2ccc(C(F)(F)F)c(C#N)n2)c(F)c1N
0.37

Request the reported log10 of EC2 associated with Nc1c(NC(=O)OC2CC2)ccc(NCc2ccc(C(F)(F)F)cc2)c1F
-0.55

Request the reported log10 of EC2 associated with CC(C)OC(=O)Nc1ccc(NCc2ccc(C(F)(F)F)cc2)c(F)c1N
0.70

Request the reported log10 of EC2 associated with CCOC(=O)Nc1ccc(NCc2ccc(C(F)(F)F)cc2)c(F)c1N
-1.05

Request the reported log10 of EC2 associated with CCOC(=O)Nc1ccc(NCc2cccc(S(F)(F)(F)(F)F)c2)c(F)c1N
-0.19

Request the reported log10 of EC2 associated with CCOC(=O)Nc1ccc(NCc2ccc(C(F)(F)F)nc2)c(F)c1N
0.10

Request the reported log10 of EC2 associated with CCOC(=O)Nc1ccc(NCc2ccc(C(F)(F)F)cc2F)c(F)c1N
-0.52

Request the reported log10 of EC2 associated with Nc1c(NC(=O)OC2CC2)ccc(NCc2ccc(C(F)(F)F)nc2)c1F
0.13

Request the reported log10 of EC2 associated with Nc1c(NC(=O)OC2CC2)ccc(NCc2ccc(C(F)(F)F)cc2F)c1F
-0.46

----------
# study.system: Voltage-gated potassium channel, KQT; KCNQ2(Kv7.2)/KCNQ3(Kv7.3) (Homo sapiens) (UniProt O43526+O43525)
# procedure.text: Agonist activity at human Kv7.2/Kv7.3 expressed in HEK293 cells assessed as drug concentration that doubles the conductance at voltage leading to 15% channel activation at holding potential of at -80 mV by whole cell patch clamp electrophysiology assay
# Assay type: cell-based
assay.endpoint: EC2 (µM)
# number only, unit µM dropped from output

Request the reported EC2 associated with CCOC(=O)Nc1ccc(NCc2ccc(C(F)(F)F)cc2F)c(F)c1N
0.18

Request the reported EC2 associated with CCOC(=O)Nc1ccc(NCc2ccc(C(F)(F)F)c(C#N)n2)c(F)c1N
1.6

Request the reported EC2 associated with CCOC(=O)Nc1cc(F)c(NCc2ccc(C(F)(F)F)cc2)cc1N
1.26

Request the reported EC2 associated with Nc1c(F)c(NCc2ncc(C(F)(F)F)cc2F)cc(F)c1NC(=O)OC1CC1
1

----------
# study.system: Voltage-gated potassium channel, KQT; KCNQ2(Kv7.2)/KCNQ3(Kv7.3) (Homo sapiens, UniProt O43525+O43526)
# Sequence (O43526 whole entry): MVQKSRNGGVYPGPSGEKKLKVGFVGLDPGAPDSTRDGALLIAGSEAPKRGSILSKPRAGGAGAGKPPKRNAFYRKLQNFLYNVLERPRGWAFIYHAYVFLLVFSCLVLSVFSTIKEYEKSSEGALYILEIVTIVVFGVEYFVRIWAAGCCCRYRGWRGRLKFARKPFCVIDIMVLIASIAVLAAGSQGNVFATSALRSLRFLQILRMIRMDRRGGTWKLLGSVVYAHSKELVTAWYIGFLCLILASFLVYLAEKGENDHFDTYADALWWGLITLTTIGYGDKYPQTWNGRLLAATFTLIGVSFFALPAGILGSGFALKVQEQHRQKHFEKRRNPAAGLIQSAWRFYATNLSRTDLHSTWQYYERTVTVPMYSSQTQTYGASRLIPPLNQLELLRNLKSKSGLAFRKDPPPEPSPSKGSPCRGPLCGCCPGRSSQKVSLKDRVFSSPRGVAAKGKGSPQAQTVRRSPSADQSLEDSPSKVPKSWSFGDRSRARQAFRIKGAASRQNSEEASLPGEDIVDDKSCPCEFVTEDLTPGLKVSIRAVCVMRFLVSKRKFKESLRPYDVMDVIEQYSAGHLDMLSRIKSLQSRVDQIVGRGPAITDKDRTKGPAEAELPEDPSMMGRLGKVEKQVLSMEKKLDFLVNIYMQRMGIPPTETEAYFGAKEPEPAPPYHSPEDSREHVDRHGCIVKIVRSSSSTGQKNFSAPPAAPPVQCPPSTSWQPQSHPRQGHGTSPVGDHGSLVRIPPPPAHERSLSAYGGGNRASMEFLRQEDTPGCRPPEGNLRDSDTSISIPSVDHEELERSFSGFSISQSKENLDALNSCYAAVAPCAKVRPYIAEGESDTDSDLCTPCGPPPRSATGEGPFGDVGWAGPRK
# Sequence (O43525 whole entry): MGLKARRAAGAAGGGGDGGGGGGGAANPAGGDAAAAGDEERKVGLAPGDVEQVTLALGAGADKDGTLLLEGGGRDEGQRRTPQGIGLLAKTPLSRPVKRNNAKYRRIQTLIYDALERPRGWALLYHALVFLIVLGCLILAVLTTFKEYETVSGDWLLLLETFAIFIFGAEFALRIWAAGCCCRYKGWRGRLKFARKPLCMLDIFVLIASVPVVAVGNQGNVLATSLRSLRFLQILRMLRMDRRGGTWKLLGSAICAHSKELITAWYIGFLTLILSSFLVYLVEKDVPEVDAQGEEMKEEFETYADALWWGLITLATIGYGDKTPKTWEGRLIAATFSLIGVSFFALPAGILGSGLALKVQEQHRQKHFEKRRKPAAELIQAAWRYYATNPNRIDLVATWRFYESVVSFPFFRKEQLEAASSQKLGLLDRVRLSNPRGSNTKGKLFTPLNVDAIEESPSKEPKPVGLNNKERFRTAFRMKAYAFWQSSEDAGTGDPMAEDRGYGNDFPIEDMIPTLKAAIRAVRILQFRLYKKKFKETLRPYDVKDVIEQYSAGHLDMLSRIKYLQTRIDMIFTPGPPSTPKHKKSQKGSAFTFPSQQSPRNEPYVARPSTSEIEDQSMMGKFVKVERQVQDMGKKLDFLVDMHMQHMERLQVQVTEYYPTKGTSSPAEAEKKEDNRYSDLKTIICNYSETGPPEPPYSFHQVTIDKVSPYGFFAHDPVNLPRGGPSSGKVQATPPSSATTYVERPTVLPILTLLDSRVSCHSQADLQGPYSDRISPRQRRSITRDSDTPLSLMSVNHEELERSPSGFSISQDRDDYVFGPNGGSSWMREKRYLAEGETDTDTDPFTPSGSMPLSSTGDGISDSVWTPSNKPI
# procedure.text: Agonist activity at human Kv7.2/Kv7.3 expressed in CHO cells at holding potential of at -85 mV by whole cell patch clamp electrophysiology assay
assay.endpoint: EC50 (nM)
# number only, unit nM dropped from output

Request the reported EC50 associated with CCOC(=O)Nc1ccc(NCc2ccc(F)cc2)c(F)c1N
600

----------
Record form. Attribute: EC2. Fill in for each entry.
# study.system: Potassium voltage-gated channel subfamily KQT member 4 (Homo sapiens) (UniProt P56696)
# Sequence (P56696 whole entry): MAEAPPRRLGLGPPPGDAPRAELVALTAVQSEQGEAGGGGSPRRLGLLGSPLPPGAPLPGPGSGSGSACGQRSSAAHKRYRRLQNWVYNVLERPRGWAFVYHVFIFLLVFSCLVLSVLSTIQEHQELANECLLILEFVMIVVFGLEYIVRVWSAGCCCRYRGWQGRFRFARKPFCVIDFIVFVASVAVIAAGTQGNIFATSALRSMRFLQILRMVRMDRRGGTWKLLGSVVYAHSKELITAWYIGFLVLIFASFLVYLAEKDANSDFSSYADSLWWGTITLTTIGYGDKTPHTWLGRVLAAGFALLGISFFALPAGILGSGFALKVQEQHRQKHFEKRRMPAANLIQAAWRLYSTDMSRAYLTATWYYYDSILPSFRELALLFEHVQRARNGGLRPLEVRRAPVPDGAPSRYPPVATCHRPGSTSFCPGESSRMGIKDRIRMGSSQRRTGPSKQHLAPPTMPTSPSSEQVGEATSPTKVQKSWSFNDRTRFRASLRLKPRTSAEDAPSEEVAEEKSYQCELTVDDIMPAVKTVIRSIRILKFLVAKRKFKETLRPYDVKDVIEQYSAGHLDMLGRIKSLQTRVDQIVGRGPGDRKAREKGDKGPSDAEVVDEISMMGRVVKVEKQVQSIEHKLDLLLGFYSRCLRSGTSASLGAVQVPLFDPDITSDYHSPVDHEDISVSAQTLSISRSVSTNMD
# procedure.text: Agonist activity at human Kv7.4 expressed in HEK293 cells assessed as drug concentration that doubles the conductance at voltage leading to 15% channel activation at holding potential of at -80 mV by whole cell patch clamp electrophysiology assay
# Type: cell-based
# number only, unit µM dropped from output

Request the reported EC2 associated with Nc1c(NC(=O)OC2CC2)ccc(NCc2ccc(C(F)(F)F)cc2)c1F
0.38

Request the reported EC2 associated with Nc1c(F)c(NCc2ccc(C(F)(F)F)cc2F)cc(F)c1NC(=O)OC1CC1
0.55

Request the reported EC2 associated with Nc1c(NC(=O)OC2CC2)ccc(NCc2ccc(C(F)(F)F)nc2)c1F
1.13

Request the reported EC2 associated with Nc1c(NC(=O)OC2CC2)ccc(NCc2ccc(C(F)(F)F)cn2)c1F
0.9

Request the reported EC2 associated with CCOC(=O)Nc1ccc(NCc2ccc(C(F)(F)F)cc2)c(F)c1N
0.1

Request the reported EC2 associated with CCOC(=O)Nc1cc(F)c(NCc2ccc(C(F)(F)F)cc2)cc1N
4.65

Request the reported EC2 associated with CCOC(=O)Nc1ccc(NCc2ccc(C(F)(F)F)cn2)c(F)c1N
0.85

Request the reported EC2 associated with CCOC(=O)Nc1ccc(NCc2cccc(C(F)(F)F)c2)c(F)c1N
0.4

Request the reported EC2 associated with CCOC(=O)Nc1ccc(NCc2ccc(F)cc2)nc1N
5.62

Request the reported EC2 associated with CC(C)OC(=O)Nc1ccc(NCc2ccc(C(F)(F)F)cc2)c(F)c1N
0.19

Request the reported EC2 associated with Nc1c(NC(=O)OC2CC2)ccc(NCc2ccc(C(F)(F)F)cc2F)c1F
0.21

Request the reported EC2 associated with CCOC(=O)Nc1ccc(NCc2ccc(C(F)(F)F)c(C#N)n2)c(F)c1N
2.17

Request the reported EC2 associated with CCOC(=O)Nc1ccc(NCc2cccc(S(F)(F)(F)(F)F)c2)c(F)c1N
0.65

Request the reported EC2 associated with CCOC(=O)Nc1ccc(NCc2ccc(C(F)(F)F)cc2F)c(F)c1N
0.11

Request the reported EC2 associated with CCOC(=O)Nc1ccc(NCc2ccc(C(F)(F)F)nc2)c(F)c1N
0.95

----------
# study.system: Voltage-gated potassium channel KCNQ3/KCNQ5 (Homo sapiens) (UniProt O43525+Q9NR82)
# procedure.text: Agonist activity at human Kv7.3/Kv7.5 expressed in HEK293 cells assessed as drug concentration that doubles the conductance at voltage leading to 15% channel activation at holding potential of at -80 mV by whole cell patch clamp electrophysiology assay
# Assay type: cell-based
Record form. Attribute: EC2. Fill in for each entry.
# number only, unit µM dropped from output

Request the reported EC2 associated with CC(C)OC(=O)Nc1ccc(NCc2ccc(C(F)(F)F)cc2)c(F)c1N
0.16

Request the reported EC2 associated with CCOC(=O)Nc1ccc(NCc2ccc(F)cc2)nc1N
1.58

Request the reported EC2 associated with CCOC(=O)Nc1ccc(NCc2cccc(C(F)(F)F)c2)c(F)c1N
0.2

Request the reported EC2 associated with CCOC(=O)Nc1ccc(NCc2ccc(C(F)(F)F)c(C#N)n2)c(F)c1N
1.3

Request the reported EC2 associated with CCOC(=O)Nc1ccc(NCc2ccc(C(F)(F)F)nc2)c(F)c1N
0.69

Request the reported EC2 associated with Nc1c(NC(=O)OC2CC2)ccc(NCc2ccc(C(F)(F)F)cc2F)c1F
0.47

Request the reported EC2 associated with CCOC(=O)Nc1ccc(NCc2cccc(S(F)(F)(F)(F)F)c2)c(F)c1N
0.21

Request the reported EC2 associated with CCOC(=O)Nc1ccc(NCc2ccc(F)cc2)cc1N [EZOGABINE]
0.34

Request the reported EC2 associated with Nc1c(NC(=O)OC2CC2)ccc(NCc2ccc(C(F)(F)F)nc2)c1F
0.69

Request the reported EC2 associated with CCOC(=O)Nc1ccc(NCc2ccc(C(F)(F)F)cc2F)c(F)c1N
0.34

Request the reported EC2 associated with CCOC(=O)Nc1ccc(NCc2ccc(C(F)(F)F)cc2)c(F)c1N
0.29
